B1: CLINT1 (parent)
chain: VVTSAREHIYDLRSLENYHFVDEH

variants of: B1; assay: protein stability index of a GFP-peptide fusion (GPS, HEK-293T) (PSI 1-6); higher = more stable; settings: c terminus: a fixed tail appended;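 also: lentivirally expressed fusions sorted by FACS into six bins by GFP to DsRed ratio, PSI derived from sequencing read proportions per bin multiplied by bin number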
Listed variants paired with reported protein stability index
// return a plain number; no unit text

- variant.id: "A5E"
  protein stability index: 3.81
- variant.id: "S14W"
  protein stability index: 2.2
- variant.id: "H8E"
  protein stability index: 2.99

Query: For the variant shown here, I9A , give the reported protein stability index.
Reply: 2.98

Query: For the variant shown here, T3E , give the reported protein stability index.
Reply: 3.84

Query: For the variant shown here, S14Y , give the reported protein stability index.
Reply: 2.02

Query: For the variant shown here, N17S , give the reported protein stability index.
Reply: 2.18

Query: For the variant shown here, V21P , give the reported protein stability index.
Reply: 3.38

Query: For the variant shown here, D11W , give the reported protein stability index.
Reply: 2.13

Query: For the variant shown here, L12P , give the reported protein stability index.
Reply: 3.21

Query: For the variant shown here, D22A , give the reported protein stability index.
Reply: 2.1
